- STUDY_TARGET: Autotaxin (ENPP2, NPP2) (Homo sapiens, UniProt Q13822 Q13822:36-863)
- TEST_NAME: inhibition; text prints 3' CCUGGA, listing ccucgga
MEASURE: IC50 (nM)
A number alone suffices; assume nM.

Given item UCUGAGGGAAACAGGUUCUGCUCCUCGGA (ssRNA, 2'-F pyrimidines, 2'-OH purines) [SEQ 46] , the value recorded as its IC50 is 50
